target: CaRvs167; assay: SPOT peptide array binding signal intensity (averaged, normalized) (arbitrary units (background-subtracted, floor 0; scale differs between SH3 domains)); higher = stronger binding of the SH3 domain to the peptide
SPOT peptide array binding signal intensity vs 40: at or above is condition met, below is condition not met.

* ALKQKKIPPPFKPHL | condition not met
* QDKEGIPPDQQRLIF | condition not met
* SSTPTTPERPKRKSG | condition met
* QNTPPLPPKPKSPHL | condition not met
* GDHPKGPPPPPPPDE | condition not met
* GRLRPKRIAPWHLIQ | condition not met

**Q:** Hi, just wondering whether `PVLPPPRSPNRPTLS` shows SPOT peptide array binding signal intensity of 40 or higher.
**A:** condition met

**Q:** Hello, I need to know if `TPTSGPPLLPPRNTM` has measured SPOT peptide array binding signal intensity not below 40. Thanks!
**A:** condition met

**Q:** SPOT peptide array binding signal intensity >= 40 for `IAPIPMPKPNPTHIS` ?
**A:** condition not met

**Q:** Hi, just wondering whether `FIRKRAPTPPAPSRS` shows SPOT peptide array binding signal intensity of 40 or higher.
**A:** condition not met

**Q:** Answer whether SPOT peptide array binding signal intensity of `AHFQPQRTAPKPPIS` is greater than or equal to 40.
**A:** condition not met

**Q:** Evaluate `NRARYLPQNPDIIAG` : SPOT peptide array binding signal intensity at minimum 40?
**A:** condition not met

**Q:** Item `AVPPPPPPPPLPESL` with SPOT peptide array binding signal intensity of 40 or above?
**A:** condition not met

**Q:** Given the entry `RKQRSIPLSPIVPES` , answer whether its SPOT peptide array binding signal intensity meets or surpasses 40.
**A:** condition not met

**Q:** Determine whether this binder has SPOT peptide array binding signal intensity no lower than 40: `LPPPPPPPPPPPLPQ`
**A:** condition not met

Cited source: the supplement of paper PMC4466140
